All figures here come from ChEMBL document CHEMBL4396973.

Record form. Attribute: IC50. Fill in for each entry.
# TARGET OR TEST SYSTEM: Kallikrein-1 (Homo sapiens, UniProt P06870)
# Sequence (P06870 whole entry, the tested form may be a part): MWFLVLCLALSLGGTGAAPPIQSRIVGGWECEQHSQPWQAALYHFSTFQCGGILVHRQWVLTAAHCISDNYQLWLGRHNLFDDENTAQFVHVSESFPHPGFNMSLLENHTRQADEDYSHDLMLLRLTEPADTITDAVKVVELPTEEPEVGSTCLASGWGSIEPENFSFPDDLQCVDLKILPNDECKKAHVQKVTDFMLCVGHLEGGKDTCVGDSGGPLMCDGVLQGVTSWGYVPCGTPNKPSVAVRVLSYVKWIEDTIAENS
# ASSAY TEXT: Inhibition of human recombinant N-terminal His-tagged and enterokinase cleavage site-fused KLK1 (19 to 262 residues) expressed in baculovirus infected Sf9 insect cells using R110 labelled GSK3162232A as substrate measured at 30 secs interval for 5 mins by FLINT assay

Ask | Recorded IC50 for Cc1ccc2c(c1)C(Cc1ccc(C(=N)N)c(OCc3cccnc3)c1)OB2O (racemic) , please?
Reply | > 10 µM

Ask | Requested read-out: IC50. Entry: COc1ccc2c(c1)C(Cc1ccc(C(=N)N)c(OCc3cccnc3)c1)OB2O (racemic)
Reply | > 10 µM

Ask | Suppose we examine the compound N=C(N)c1ccc(CC2OB(O)c3cc(C(F)(F)F)ccc32)cc1OCc1cccnc1 (racemic) ; what IC50 value has been reported?
Reply | > 10 µM

---

# TARGET OR TEST SYSTEM: Kallikrein-14 (Homo sapiens, UniProt Q9P0G3)
# Sequence (Q9P0G3 17-267): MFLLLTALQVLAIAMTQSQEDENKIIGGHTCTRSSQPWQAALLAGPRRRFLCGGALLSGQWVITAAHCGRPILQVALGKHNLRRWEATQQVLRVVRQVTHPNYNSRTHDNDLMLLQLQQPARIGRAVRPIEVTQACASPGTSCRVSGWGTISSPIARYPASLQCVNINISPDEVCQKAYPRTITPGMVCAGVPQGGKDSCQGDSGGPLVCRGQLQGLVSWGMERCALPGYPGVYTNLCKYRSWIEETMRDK
# ASSAY TEXT: Inhibition of recombinant human C-terminal 10-His-tagged KLK14 (Q19 to M248 residues) expressed in mouse NS0 cells using BOC-VPR-AMC as substrate incubated for 40 mins by FLINT assay
Could you mark each record class 1 if its IC50 falls strictly under 2000 nM, and class 0 if it equals or exceeds it?

Ask | Find out if reported IC50 for N=C(N)c1ccc([C@@H]2Cc3ccc(C(F)(F)F)cc3B(O)O2)cc1OCc1cccnc1 is less than 2000 nM
Reply | class 1

Ask | Is the reported IC50 for N=C(N)c1ccc(C2Cc3ccccc3B(O)O2)cc1OCc1ccccc1Cl (racemic) strictly below 2000 nM?
Reply | class 1

Ask | Does the reported IC50 of N=C(N)c1ccc(CC2OB(O)c3cc(C(F)(F)F)ccc32)cc1OCc1cccnc1 (racemic) stay below 2000 nM?
Reply | class 0

Ask | Confirm or reject: IC50 of N=C(N)c1ccc(C2Cc3ccccc3B(O)O2)cc1OCc1cccnc1 (racemic) lies strictly below 2000 nM
Reply | class 1

Ask | Take the compound N=C(N)c1ccc(C2Cc3ccccc3B(O)O2)cc1OCc1cccc(Cl)c1 (racemic) and say whether its IC50 is less than 2000 nM.
Reply | class 1

Ask | Hi there! Is IC50 for Cc1ccc2c(c1)C(Cc1ccc(C(=N)N)c(OCc3cccnc3)c1)OB2O (racemic) below 2000 nM, do you know?
Reply | class 0

Ask | Item N=C(N)c1ccc(CC2OB(O)c3ccc(F)cc32)cc1OCc1cccnc1 (racemic) : IC50 beneath 2000 nM, strictly?
Reply | class 0

---

# TARGET OR TEST SYSTEM: Kallikrein-7 (Homo sapiens)
# Sequence (P49862 whole entry): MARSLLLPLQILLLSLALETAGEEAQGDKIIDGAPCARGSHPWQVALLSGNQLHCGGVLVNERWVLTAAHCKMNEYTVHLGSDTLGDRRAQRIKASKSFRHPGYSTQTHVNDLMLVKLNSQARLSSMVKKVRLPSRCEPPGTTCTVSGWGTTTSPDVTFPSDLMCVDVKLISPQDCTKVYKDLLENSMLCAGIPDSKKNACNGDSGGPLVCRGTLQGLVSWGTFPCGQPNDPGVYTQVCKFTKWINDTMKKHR
# ASSAY TEXT: Inhibition of recombinant human C-terminal 10-His-tagged KLK7 (Glu23 to His252 residues) expressed in mouse NS0 cells using 5-FAM-E-A-L-Y-L-V-S-G-C(5-TAMRA) as substrate incubated for 40 mins by FLINT assay
ASSAY METRIC: IC50 (µM)
Report as a plain number; the unit µM is understood.

Ask | Look up IC50 for this compound: N=C(N)c1ccc(C2Cc3ccc(C(F)(F)F)cc3B(O)O2)cc1OCc1cccnc1 (racemic)
Reply | 39.8

Ask | Param item = N=C(N)c1ccc(C2Cc3ccccc3B(O)O2)cc1OCc1cccc(Cl)c1 (racemic) ; retrieve measured IC50.
Reply | 39.8

Ask | For the compound shown here, N=C(N)c1ccc(C2Cc3ccccc3B(O)O2)cc1OCc1ccccc1Cl (racemic) , give the reported IC50.
Reply | 39.8
